- assay-text: folding stability dG unfold from chymotrypsin proteolysis; higher = more stable

| input-sequence | readout-units | folding stability dG unfold |
| --- | --- | --- |
| SAGPVVLSPDDTVKIGKKELTFFSDGTVSVKYPDGTGESITVTVDPSSGNITLTETFTEPETGTTPVENSAG [r5_33_JUSTAS] | kcal/mol | 1.48 |
| SAGGSAGGSAGDDNDGKKKFPMTIKIPPIPIEIPPGMKITSWIPIRIPGGLEFPIIYITPSAGGSAGGSAGG [r11_388_TrROS] | kcal/mol | 1.1 |
| SAMMTPEERAFVERLRALFAERGGRIEIRFFEEPDRIEILVEEDDPELIREIREELARIPFPISRIVEESAG [r14_284_TrMRF] | kcal/mol | 3.69 |
| SAGGDFKPPVPTTQVLTFTIETSPEDPEKAKEIAEKLKKELLEKGAVKIEVTLDPEPGTVTVTVTLVKLSAG [r5_512_JUSTAS] | kcal/mol | 2.92 |

###

- assay-text: folding stability dG unfold (combined trypsin and chymotrypsin); higher = more stable
Reported folding stability dG unfold values are given for each entry in this list.
property-name: folding stability dG unfold (kcal/mol)

| input-sequence | readout-units | operator | endpoint-value |
| --- | --- | --- | --- |
| SAGGMKTYTVTVEREVPDPSSDKWVYSTETLTIPYNVDPKTGTTPEEVAEELKAALPPDVLRVEFTDESAGG [r13_335_JUSTAS] | kcal/mol | = | 0.317 |
| SKPGKTIMIMITMDNIKEFLEELPLEPNMEVEIMFMNPNGKMRTLTIRNGEIDSIEPFPNFPDYWMIMIKSA [r9_849_TrROS] | kcal/mol | = | 2.78 |
| SAGGSAGGSTVPQSLPDSTATISSGPGGTWTVTFYPDEGSRTLTLPRSVVDASPVPLTELVSSSAGGSAGGS [r20_90_JUSTAS] | kcal/mol | < | -1 |
| SAFNIEIEEVDPNEIYIKIDATPEQLEEIAEDIMKNFPGYKVKWEWDDEQGKIWFRIRPVPPPPPEDQNSAG [r14_600_TrROS] | kcal/mol | = | 1.96 |
| SPPETETYPIPNPEDGKPLMDITIERNPENGNWKVEIYWPGGKKKEVEFPPNETIPIDDLPPGFWVTITRSA [r9_1150_TrROS] | kcal/mol | = | 1.21 |
| SANFDKAPPIEVKTEVSSFPADEEKIDPKTGKKSKRKRTITPVTVTKDGKTYTSTTTTYPDGSTETTTSSAG [r14_225_JUSTAS] | kcal/mol | = | -0.249 |
| SAGGAGPEKAEELARALAAELEEEGREWRFKITYSAEPEILSIDVYPLSEPLVDDAKPGYRTLYYDAPSAGG [r13_693_TrMRF] | kcal/mol | = | 0.957 |
| SMKIEFLDVKEDGTIVIRLTLLRPDGKPPTKEEAAERAKEIAEILKPYFPDAEFTIEFDPESGEATIVIDSA [r9_485_TrMRF] | kcal/mol | = | 4.83 |
| SAGGFKIEIEKNPEPDGIVIVIEYDMPPKGIKDFIEELFGPNPKDVTTEEHPNGRTEVTFRIPPGAPSAGGS [r16_605_TrROS] | kcal/mol | = | 0.268 |
| SAGGSDNKPFRIEPTGVDSVEANPDGMVEIEWRFRLPNGYVLTWRETINPKNGKPSIEPTLVPPGESAGGSA [r2_321_TrROS] | kcal/mol | = | 0.902 |
| SAGGEEVVEEPPPPEVEVIEIRDAETDRTVTLVYNKDTGKLFLFDEDTGLVYEFDVDGRLVRVERLPPSAGG [r13_101_TrROS_Hall] | kcal/mol | = | 4.16 |
| SAGGSASLESEDVEEVSTSTSVVPLPDGGTATVTTTTYRHKEPGTLVTRTTTTFPGGATTTTVTLLSAGGSA [r15_188_JUSTAS] | kcal/mol | = | 1.91 |
| SAGGSAKLEINIIIPGMPPERAKRKARNIAAELRKQGLPKENIKDVDIKVIVMPWRRDPDNKWKPMSAGGSA [r15_684_TrROS] | kcal/mol | = | -0.0462 |
| SAGGSAGGSSPDWSVKKSTVTVTITFPEEKYFEPETKKEVAKRPVITIEIEIEVVETLPASLISAGGSAGGS [r12_600_JUSTAS] | kcal/mol | = | 1.63 |
